We begin with pIC50 values for Tyrosine-protein kinase JAK1 (Homo sapiens), as collected from the published literature.
pIC50: −log10 of the molar value.

Query: Form field - read-out: pIC50; system: Tyrosine-protein kinase JAK1 (Homo sapiens); submitted item: Nc1cc2ccc1-c1ccnc(n1)Nc1ccc(OCc3ccccc3)c(c1)COCCCCNC2=O
Reply: 5.00 to 6.00

Query: Short answer please: pIC50, Tyrosine-protein kinase JAK1 (Homo sapiens), entry Cc1cnc(NC(=O)N2C[C@H]3C[C@H](N(C)c4ncnc5[nH]ccc45)C[C@H]3C2)s1
Reply: 7.02

Query: Lab note: need pIC50 with Tyrosine-protein kinase JAK1 (Homo sapiens) for entry CN(c1ncnc2[nH]ccc12)[C@H]1C[C@@H](NS(=O)(=O)CCCO)C1 , please look it up.
Reply: 7.36

Query: What value of pIC50 on Tyrosine-protein kinase JAK1 (Homo sapiens) does N#CCC(C1CC1)n1cc(-c2nc(-c3ccc4c(c3)CNCC4)cc3nccn23)cn1 (stereo not shown) have?
Reply: 7.00 to 8.00

Query: Notebook: pull reported pIC50 for Tyrosine-protein kinase JAK1 (Homo sapiens), entry N#CCC(=O)N1CCC[C@@H](Nc2c(-c3ccn[nH]3)cnc3[nH]ccc23)C1
Reply: ≥ 8.00

Query: Record lookup: for Tyrosine-protein kinase JAK1 (Homo sapiens), what pIC50 belongs to CCC1=C(CC)c2cc(Nc3nn([C@@H]4CCC[C@H]4C#N)cc3C(N)=O)ccc2OB1O (relative stereo) ?
Reply: 7.30 to 8.00

Query: I'm curious: which pIC50 was measured for CC(C)(O)c1cc(O[C@H]2CC[C@@H](N3CC(CC#N)(n4cc(-c5ncnc6[nH]ccc56)cn4)C3)CC2)nc(C(F)(F)F)c1 tested on Tyrosine-protein kinase JAK1 (Homo sapiens)?
Reply: > 8.00

Query: Tyrosine-protein kinase JAK1 (Homo sapiens) / pIC50 / CC1CN(C(=O)CC#N)CN1n1cnc2cnc3[nH]ccc3c21 (stereo not shown) : value?
Reply: 8.55

Query: For the record Clc1cnc2nc1NCCCc1cccc(c1)OCCc1cccc(c1)N2 , what value of pIC50 is listed for Tyrosine-protein kinase JAK1 (Homo sapiens)?
Reply: 7.49

Query: Entry N#CCC1(n2cc(-c3ncnc4[nH]ccc34)cn2)CN(C2CCN(C(=O)c3ccc(F)cc3F)CC2)C1 , system Tyrosine-protein kinase JAK1 (Homo sapiens): what pIC50 was measured?
Reply: ≥ 8.30

Query: // lookup pIC50 | system=Tyrosine-protein kinase JAK1 (Homo sapiens) | key= Cc1ccc(NC(=O)c2cc(C(F)(F)F)ccc2F)cc1-c1ccc2c(c1)[nH]c1ncncc12
Reply: ≥ 6.30

Query: Given the entry CN(c1ncnc2[nH]ccc12)[C@H]1C[C@@H]2CN(C(=O)Nc3ccn(C)n3)C[C@@H]2C1 , what pIC50 was observed with Tyrosine-protein kinase JAK1 (Homo sapiens)?
Reply: 6.96

Query: Provide value of pIC50 for this record tested with Tyrosine-protein kinase JAK1 (Homo sapiens): C[C@@H](O)CNCc1cc(OC2CCN([C@H]3C[C@](CC#N)(n4cc(-c5ncnc6[nH]ccc56)cn4)C3)CC2)nc(C(F)(F)F)c1
Reply: > 8.00

Query: For the record CCOC(=O)c1cnc2[nH]ccc2c1N[C@H]1CCC[C@H](CCC#N)C1 (single isomer, unassigned; enantiomer 2) , what value of pIC50 is listed for Tyrosine-protein kinase JAK1 (Homo sapiens)?
Reply: 7.00 to 8.00

Query: Can you look up pIC50 on Tyrosine-protein kinase JAK1 (Homo sapiens) for CCOC(=O)N1CCC(N2CC(CC#N)(n3cc(-c4ncnc5[nH]ccc45)cn3)C2)CC1 ?
Reply: 7.70 to 8.30

Query: Short answer please: pIC50, Tyrosine-protein kinase JAK1 (Homo sapiens), entry FC(F)(F)CCNCc1n[nH]c2c1CN(c1ncnc3[nH]ccc13)CC2
Reply: 6.30 to 7.00

Query: Query the reported pIC50 for Tyrosine-protein kinase JAK1 (Homo sapiens); item: N#CCC1(n2cc(-c3ncnc4[nH]ccc34)cn2)CN([C@H]2CC[C@@H](Oc3cc(CN4CC[C@@H](O)C4)cc(C(F)(F)F)n3)CC2)C1
Reply: > 8.00

Query: Could you share what pIC50 was measured for C=CCNc1nc(Nc2ccc3c(c2)NC[C@H](O)CO3)ncc1C(N)=O , tested on Tyrosine-protein kinase JAK1 (Homo sapiens)?
Reply: > 8.00

Query: Requested read-out pIC50, target or system Tyrosine-protein kinase JAK1 (Homo sapiens), entry Cc1cnc2nc1NCCCCCCC(=O)N1CCN(CC1)c1cnc(F)c(c1)N2
Reply: 6.00 to 7.00

Query: So what pIC50 did Cc1cc(Nc2ncc(C)c(N3CC(CCC#N)C3)n2)sn1 get with Tyrosine-protein kinase JAK1 (Homo sapiens)?
Reply: > 7.60

Query: State its pIC50 on Tyrosine-protein kinase JAK1 (Homo sapiens): Cc1cc(Nc2ncc(Cl)c(NC3CCN(c4ccc(C#N)nn4)CC3)n2)nn1C
Reply: 9.40

Query: I'm curious: which pIC50 was measured for Cc1ccc(-c2cc3nccn3c(-c3cnn(C(CC#N)C4CC4)c3)n2)cn1 (stereo not shown) tested on Tyrosine-protein kinase JAK1 (Homo sapiens)?
Reply: 6.00 to 7.00

Query: Report pIC50 for CN(c1ncnc2[nH]ccc12)C1CCC2(CC1)CCN(C(=O)Cc1c[nH]c3ccccc13)CC2 tested on Tyrosine-protein kinase JAK1 (Homo sapiens).
Reply: 6.00 to 7.00

Query: Find the measured pIC50: item O=C1NCCCCOCc2cc(ccc2OCC2Cc3ccccc3C2)Nc2nccc(n2)-c2ccc1cc2[N+](=O)[O-] , target or system Tyrosine-protein kinase JAK1 (Homo sapiens).
Reply: < 5.00

Query: I'm curious: which pIC50 was measured for CC1CC(N2CC(CC#N)(n3cc(-c4ncnc5[nH]ccc45)cn3)C2)CCN1Cc1c(F)cccc1Cl (single isomer, unassigned) tested on Tyrosine-protein kinase JAK1 (Homo sapiens)?
Reply: 7.70 to 8.30

Query: Record lookup: for Tyrosine-protein kinase JAK1 (Homo sapiens), what pIC50 belongs to CN(c1ccccc1CNc1nc(-c2cc(F)c(O)cc2C2CC2)cc2[nH]nc(C(N)=O)c12)S(C)(=O)=O ?
Reply: 7.97

Query: Please state recorded pIC50 (tested on Tyrosine-protein kinase JAK1 (Homo sapiens)) of COCCS(=O)(=O)NC12CC(n3cnc4cnc5[nH]ccc5c43)(C1)C2
Reply: 7.61

Query: Please tell me: pIC50 of CC(C(=O)O)n1cc(Nc2ncc3ccn(C[C@H]4CC[C@H](O)CC4)c3n2)cn1 (stereo partly shown) , system Tyrosine-protein kinase JAK1 (Homo sapiens)?
Reply: > 7.00

Query: Checklist item: pIC50 tested on Tyrosine-protein kinase JAK1 (Homo sapiens), entry O=C(NCCC(F)(F)F)n1ccc2c1CN(c1ncnc3[nH]ccc13)CC2 , value?
Reply: 6.30 to 7.00

Query: Record lookup: for Tyrosine-protein kinase JAK1 (Homo sapiens), what pIC50 belongs to CC(C)(O)Cc1nc2cc(Nc3ncc(Cl)c(NC4CCN(c5ccc(C#N)cn5)CC4)n3)ccn2n1 ?
Reply: 9.00

Query: # returns recorded pIC50 (system: Tyrosine-protein kinase JAK1 (Homo sapiens)) for CCc1nc2cnc3ccsc3c2n1[C@H]1CC[C@H](CC#N)CC1
Reply: ≥ 7.00

* * *

Published IC50 for Tyrosine-protein kinase JAK1 (Homo sapiens), assembled from different documents, is shown next.

Query: For Tyrosine-protein kinase JAK1 (Homo sapiens), provide IC50 of Cc1cccc(NC(=O)c2ccc(C)c(-c3ccc4c(c3)[nH]c3ncncc34)c2)c1 please.
Reply: ≤ 500 nM

Query: Hello, I am looking for reported IC50 with Tyrosine-protein kinase JAK1 (Homo sapiens) for Cn1ccc(-c2cc3nccn3c(-c3cnn(C4(CCF)CN(S(=O)(=O)C(F)(F)F)C4)c3)n2)cc1=O . Could you help?
Reply: 100 to 1000 nM

Query: Give Tyrosine-protein kinase JAK1 (Homo sapiens) IC50 for Cn1cc(-c2cc3nccn3c(-c3cnn(C(CCO)c4ccc(F)cc4)c3)n2)cn1 (stereo not shown)
Reply: 100 to 1000 nM

Query: Param readout = IC50; param system = Tyrosine-protein kinase JAK1 (Homo sapiens); param query = COc1ccccc1NC(=O)N1CCC(N2CC(CC#N)(n3ccc(-c4ncnc5[nH]ccc45)c3)C2)CC1 ; response: value
Reply: ≤ 5 nM

Query: Enter reported IC50 observed with Tyrosine-protein kinase JAK1 (Homo sapiens) for Cc1cc(Nc2ncc(C)c(N3CC(CC#N)(NCC4CC4(F)F)C3)n2)sn1 (stereo not shown)
Reply: < 20 nM

Query: Request - read-out IC50 | tested on Tyrosine-protein kinase JAK1 (Homo sapiens) | molecule Cc1ccc(NC(=O)c2cc(F)cc(C(F)(F)F)c2)cc1-c1ccc2c(c1)[nH]c1ncncc12
Reply: ≤ 500 nM

Query: Query IC50 on Tyrosine-protein kinase JAK1 (Homo sapiens) for CCc1nc2cnc3ccoc3c2n1[C@H]1CC[C@H](CC#N)OC1
Reply: < 10 nM

Query: Field: IC50 (Tyrosine-protein kinase JAK1 (Homo sapiens)). Entry: O=S(=O)(N1CC(CCF)(n2cc(-c3nc(-c4cn[nH]c4)cc4nccn34)cn2)C1)C(F)(F)F
Reply: 10 to 100 nM

Query: Item: O=C(NCCC(F)(F)F)c1nn(-c2ccccc2)c2c1CN(c1ncnc3[nH]ccc13)CC2 Test system: Tyrosine-protein kinase JAK1 (Homo sapiens) Read-out: IC50 Value: ?
Reply: 100 to 500 nM

Query: IC50 of CS(=O)(=O)c1ccc(-c2cnc3[nH]ccc3c2N[C@@H]2CCCN(C(=O)CC#N)C2)nc1 on Tyrosine-protein kinase JAK1 (Homo sapiens)?
Reply: ≤ 10 nM

Query: Identify the measured IC50 of CCCS(=O)(=O)N[C@H]1C[C@@H](Nc2c(-c3cc(C(=O)NC)ccn3)cnc3[nH]ccc23)C1 for Tyrosine-protein kinase JAK1 (Homo sapiens).
Reply: 10 to 100 nM

Query: Observed IC50 on Tyrosine-protein kinase JAK1 (Homo sapiens) for Cc1cc(Nc2nc(N[C@@H]3C[C@@H]4CN(CCC#N)C[C@@H]4C3)nc3ccccc23)n[nH]1 , please.
Reply: 5.11 nM

Query: Look up IC50 with Tyrosine-protein kinase JAK1 (Homo sapiens) for this molecule: Cc1cc(Nc2ncc(C)c(N3CC(CC#N)(NC(=O)c4cccnc4)C3)n2)sn1
Reply: < 20 nM

Query: Please state recorded IC50 (tested on Tyrosine-protein kinase JAK1 (Homo sapiens)) of O=C1NCCCCOCc2cc(ccc2N2CCCCC2)Nc2nccc(n2)-c2ccc1cc2F
Reply: 101 to 1000 nM

Query: Query IC50 on Tyrosine-protein kinase JAK1 (Homo sapiens) for N#CCC1(n2cc(-c3ncnc4[nH]ccc34)cn2)CN(C2CCN(C(=O)c3ccc(C#N)cc3)CC2)C1
Reply: 20 to 30 nM

Query: Which IC50 is reported with Tyrosine-protein kinase JAK1 (Homo sapiens) for this entry: Cc1cc(Nc2nc(N[C@@H]3C[C@H]4CC[C@@H](C3)N4C(=O)CN(C)C)nc3cc(Cl)ccc23)n[nH]1 ?
Reply: 1.76 nM

Query: Give Tyrosine-protein kinase JAK1 (Homo sapiens) IC50 for Cn1cc(Nc2ncc(Cl)c(NC3CC4CN(CC(C)(C)O)CC4C3)n2)cn1 (stereo not shown)
Reply: 32 nM

Query: Look up IC50 with Tyrosine-protein kinase JAK1 (Homo sapiens) for this molecule: CN(C)c1ccc(S(=O)(=O)N2CCC(N3CC(CC#N)(n4cc(-c5ncnc6[nH]ccc56)cn4)C3)CC2)cc1C#N
Reply: ≤ 5 nM

Query: # value lookup — system Tyrosine-protein kinase JAK1 (Homo sapiens), readout IC50, item COc1cc(F)ccc1COc1ccc2cc1COCCCCNC(=O)c1ccc(c(N)c1)-c1ccnc(n1)N2
Reply: 1000 to 10000 nM

Query: Can you look up IC50 on Tyrosine-protein kinase JAK1 (Homo sapiens) for C[C@@H](O)c1nc2cnc3ccsc3c2n1[C@H]1CC[C@H](CO)CC1 ?
Reply: ≤ 100 nM

Query: Reported IC50 for Tyrosine-protein kinase JAK1 (Homo sapiens), given CC(C)(C)OC(=O)N1CC2CN(Nc3c(C(N)=O)cnc4[nH]ccc34)CC2C1 (stereo not shown) ?
Reply: 1.1 nM

Query: Notebook: pull reported IC50 for Tyrosine-protein kinase JAK1 (Homo sapiens), entry Cc1cnc(Nc2ccc(NS(=O)(=O)c3ccc(C(F)(F)F)cc3)c(F)c2)nc1-c1cnn(C(C)C)c1
Reply: 76 nM

Query: Give the reported IC50 for Cn1cc(-c2cc3nccn3c(-c3cnn([C@@H](CCF)C4CCC4)c3)n2)cn1 (system: Tyrosine-protein kinase JAK1 (Homo sapiens)).
Reply: 100 to 1000 nM

Query: Find IC50 (Tyrosine-protein kinase JAK1 (Homo sapiens)) for the entry Cc1cc(C#N)ccc1C(=O)N1CC2(CC(N(C)c3ncnc4[nH]ccc34)C2)C1
Reply: 100 to 1000 nM

Query: Record lookup: for Tyrosine-protein kinase JAK1 (Homo sapiens), what IC50 belongs to N#CCc1nc2cnc3ccsc3c2n1[C@H]1CC[C@H](CC#N)OC1 ?
Reply: ≤ 100 nM

Query: Enter reported IC50 observed with Tyrosine-protein kinase JAK1 (Homo sapiens) for C[C@@H](O)c1nc2cnc3ccoc3c2n1[C@H]1CC[C@H](C#N)CC1
Reply: 100 to 1000 nM

Query: Param readout = IC50; param system = Tyrosine-protein kinase JAK1 (Homo sapiens); param query = N#CCC(C1CCCC1)n1cc(-c2nc(-c3ccc(N4CCOCC4)cc3)cc3nccn23)cn1 (single isomer, unassigned) ; response: value
Reply: 100 to 1000 nM

Query: Write down the reported IC50 of O=C1NCCCCOCc2cc(ccc2OCC2CC(F)(F)C2)Nc2nccc(n2)-c2ccc1cc2[N+](=O)[O-] , test system: Tyrosine-protein kinase JAK1 (Homo sapiens).
Reply: > 10000 nM

Query: Which measured IC50 belongs to CC(C)(O)Cn1cc(Nc2ncc(Cl)c(NC3CC4CN(C(=O)CC#N)CC4C3)n2)cn1 (stereo not shown) , tested on Tyrosine-protein kinase JAK1 (Homo sapiens)?
Reply: 2 nM

Query: Give recorded IC50 with Tyrosine-protein kinase JAK1 (Homo sapiens) for the following molecule: CCN1CC(CC#N)(n2cc(-c3nc(-c4cnn(C)c4)cc4nccn34)cn2)C1
Reply: > 1000 nM

Query: Request: IC50, test system Tyrosine-protein kinase JAK1 (Homo sapiens), entry N#CCC(=O)N1CCC(Nc2nc(Nc3ccc4c(c3)NC[C@H](O)CO4)ncc2C(N)=O)C1 (stereo partly shown)
Reply: 10 to 100 nM
